test system: C. albicans; experiment: Minimum inhibitory concentration for fungi in presence of serum, C. albicans (Table VI); format: cell-based; conditions: Candida albicans; Sabouraud nutrient broth + 10% bovine serum, 28°C, 48 hours
The following molecules are shown together with reported MIC values.
Numeric only. Scale: µg/mL

| molecule | target.under.test | unit.of.measure | MIC |
| --- | --- | --- | --- |
| CC(N1CCN(CCN2CCCC2)CC1)C(O)(Cc1ccccc1)Cc1ccccc1 (stereo not drawn) | C. albicans | µg/mL | 64 |

Next molecule, MIC to be filled in.
In: Data request, read-out MIC, for CC(C(=Cc1ccccc1)Cc1ccccc1)N1CC[N+]2(CCCCCC2)CC1 (stereo not drawn)
Out: 64
